Measured values drawn from patent US20260184815A1 for this set.

Molecular target: pKal catalytic domain Mutant 4 (human) (UniProt P03952)
Sequence (P03952 391-638, change not shown): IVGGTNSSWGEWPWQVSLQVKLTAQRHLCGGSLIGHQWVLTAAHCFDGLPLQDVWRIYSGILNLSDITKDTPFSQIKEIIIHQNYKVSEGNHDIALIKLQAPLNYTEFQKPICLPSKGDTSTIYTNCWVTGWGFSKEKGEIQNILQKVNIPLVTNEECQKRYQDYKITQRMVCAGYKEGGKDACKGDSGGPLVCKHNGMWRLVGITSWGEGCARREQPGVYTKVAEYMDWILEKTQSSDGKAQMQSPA
Experiment: equilibrium Ki,app, fluorogenic substrate, tight binding fit
The following binders are shown together with reported Ki values.
Dear colleague, please return just the value in nM, with no unit written.

| Binder | Ki / nM |
| --- | --- |
| M6-D09 (antibody, V domains shown) VH: EVQLLESGGGLVQPGGSLRLSCAASGFTFSFYYMVWVRQAPGKGLEWVSVIYPSGGITVYADSVKGRFTISRDNSKNTLYLQMNSLRAEDTAVYYCARDKWAVMPPYYYYAMDVWGQGTTVTVSS VL: DIQMTQSPSSLSASVGDRVTITCRASQSIRNYLNWYQQKPGKAPNLLIYAASTLQSGVPARFSGSGSGTDFTLTISSLQPEDFATYYCQQLSGYPHTFGQGTKLEIK | 2.9 |

Form field: reported Ki of M29-D09 (Fab, V domains shown) VH: EVQLLESGGGLVQPGGSLRLSCAASGFTFSWYTMVWVRQAPGKGLEWVSYIYPSGGATFYADSVKGRFTISRDNSKNTLYLQMNSLRAEDTAVYYCAMGSYDYIWGFYSDHWGQGTLVTVSS VL: QSALTQPPTVSVSPGQTARITCSGNKLGDKYVAWYQQKPGQSPMLVIYQDTKRPSRVSERFSGSNSANTATLSISGTQALDEADYYCQAWDSSIVIFGGGTRLTVL
0.39

Form field: reported Ki of X115-B07 (antibody, V domains shown) VH: EVQLLESGGGLVQPGGSLRLSCAASGFTFSHYLMTWVRQAPGKGLEWVSYISPSGGHTIYADSVKGRFTISRDNSKNTLYLQMNSLRAEDTAVYYCAMVGQGIRGRSRTSYFAQWGQGTLVTVSS VL: EIVLTQSPGTLSLSPGERATLSCRTSQFVNSNYLAWYQQKPGQAPRLLIYGASSRATGIPDRFSGSGSGTDFTLTISRLEPEDFAVYYCQQSSRTPWTFGQGTKVEIK
0.14

Form field: reported Ki of X115-A03 (antibody, V domains shown) VH: EVQLLESGGGLVQPGGSLRLSCAASGFTFSHYIMMWVRQAPGKGLEWVSGIYSSGGITVYADSVKGRFTISRDNSKNTLYLQMNSLRAEDTAVYYCAWRRIGVPRRDSFDMWGQGTMVTVSS VL: DIQMTQSPSTLSASVGDRVTITCRASQSISSWLAWYQQKPGKAPKLLIYKASTLESGVPSRFSGSGSGTEFTLTISSLQPDDFATYYCQQYNTYWTFGQGTKVEIK
0.13

Form field: reported Ki of M35-G04 (antibody, V domains shown) VH: EVQLLESGGGLVQPGGSLRLSCAASGFTFSYYHMSWVRQAPGKGLEWVSVISPSGGSTKYADSVKGRFTISRDNSKNTLYLQMNSLRAEDTAVYYCARGGSSDYAWGSYRRPYYFDYWGQGTLVTVSS VL: DIQMTQSPATLSLSPGERATLSCRASQSVSSYLAWYQQKPGQAPRLLIYDASNRATGIPARFSGSGSGTDFTLTISSLEPEDFAVYYCQQRSNWPRGFTFGPGTKVDIK
0.8

Form field: reported Ki of X115-G04 (antibody, V domains shown) VH: EVQLLESGGGLVQPGGSLRLSCAASGFTFSHYIMMWVRQAPGKGLEWVSGIYSSGGITVYADSVKGRFTISRDNSKNTLYLQMNSLRAEDTAVYYCAYRRTGVPRRDEFDIWGQGTMVTVSS VL: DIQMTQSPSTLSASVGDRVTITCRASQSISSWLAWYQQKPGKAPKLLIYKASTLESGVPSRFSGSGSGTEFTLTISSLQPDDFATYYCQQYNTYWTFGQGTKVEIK
0.3

Form field: reported Ki of DX-2922 (antibody, V domains shown) VH: EVQLLESGGGLVQPGGSLRLSCAASGFTFSHYLMTWVRQAPGKGLEWVSYISPSGGHTIYADSVKGRFTISRDNSKNTLYLQMNSLRAEDTAVYYCARVARGIAARSRTSYFDYWGQGTLVTVSS VL: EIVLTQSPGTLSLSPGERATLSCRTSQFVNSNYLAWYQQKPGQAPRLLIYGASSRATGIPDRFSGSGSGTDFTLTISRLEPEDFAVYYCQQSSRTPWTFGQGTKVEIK
0.25

Form field: reported Ki of M145-D11 (Fab, V domains shown) VH: EVQLLESGGGLVQPGGSLRLSCAASGFTFSHYRMSWVRQAPGKGLEWVSSIYPSGGRTVYADSVKGRFTISRDNSKNTLYLQMNSLRAEDTAVYYCAKDKFEWRLLFRGIGNDAFDIWGQGTMVTVSS VL: QSVLTQPPSVSVSPGQTASITCSGDKLGDKYTSWYQQRPGQSPVLVIYQDIKRPSGIPERFSGSNSGNTATLTISGTQAMDEADYYCQAWDSPNARVFGSGTKVTVL
0.21
